- study_target: Gamma-aminobutyric acid receptor subunit beta-1 (Homo sapiens, UniProt P18505)
- Sequence (P18505 whole entry): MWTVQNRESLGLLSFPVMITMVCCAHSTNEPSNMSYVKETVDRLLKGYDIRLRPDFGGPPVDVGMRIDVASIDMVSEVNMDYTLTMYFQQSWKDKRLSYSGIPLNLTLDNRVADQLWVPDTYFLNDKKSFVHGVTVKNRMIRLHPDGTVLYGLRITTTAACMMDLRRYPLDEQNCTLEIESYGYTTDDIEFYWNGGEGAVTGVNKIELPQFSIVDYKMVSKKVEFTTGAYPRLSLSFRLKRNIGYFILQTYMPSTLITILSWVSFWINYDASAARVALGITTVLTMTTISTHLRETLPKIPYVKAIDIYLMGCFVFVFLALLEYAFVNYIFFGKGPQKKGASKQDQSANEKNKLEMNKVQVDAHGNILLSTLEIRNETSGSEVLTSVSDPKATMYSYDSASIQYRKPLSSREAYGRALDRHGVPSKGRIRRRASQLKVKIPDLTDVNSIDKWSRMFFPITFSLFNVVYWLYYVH
- experimental_details: Ray2010 Assay 74
quantity_kind: Ki

compound | quantity_kind | observed
CNC(C)Cc1ccc2c(c1)OCO2 (configuration not stated) | Ki | > 10 µM
CC[C@H]1C[C@@H]2C[C@H]3c4[nH]c5ccc(OC)cc5c4CCN(C2)[C@@H]13 | Ki | > 10 µM

----------
- study_target: Metabotropic glutamate receptor 4 (Homo sapiens, UniProt Q14833)
- Sequence (Q14833 whole entry): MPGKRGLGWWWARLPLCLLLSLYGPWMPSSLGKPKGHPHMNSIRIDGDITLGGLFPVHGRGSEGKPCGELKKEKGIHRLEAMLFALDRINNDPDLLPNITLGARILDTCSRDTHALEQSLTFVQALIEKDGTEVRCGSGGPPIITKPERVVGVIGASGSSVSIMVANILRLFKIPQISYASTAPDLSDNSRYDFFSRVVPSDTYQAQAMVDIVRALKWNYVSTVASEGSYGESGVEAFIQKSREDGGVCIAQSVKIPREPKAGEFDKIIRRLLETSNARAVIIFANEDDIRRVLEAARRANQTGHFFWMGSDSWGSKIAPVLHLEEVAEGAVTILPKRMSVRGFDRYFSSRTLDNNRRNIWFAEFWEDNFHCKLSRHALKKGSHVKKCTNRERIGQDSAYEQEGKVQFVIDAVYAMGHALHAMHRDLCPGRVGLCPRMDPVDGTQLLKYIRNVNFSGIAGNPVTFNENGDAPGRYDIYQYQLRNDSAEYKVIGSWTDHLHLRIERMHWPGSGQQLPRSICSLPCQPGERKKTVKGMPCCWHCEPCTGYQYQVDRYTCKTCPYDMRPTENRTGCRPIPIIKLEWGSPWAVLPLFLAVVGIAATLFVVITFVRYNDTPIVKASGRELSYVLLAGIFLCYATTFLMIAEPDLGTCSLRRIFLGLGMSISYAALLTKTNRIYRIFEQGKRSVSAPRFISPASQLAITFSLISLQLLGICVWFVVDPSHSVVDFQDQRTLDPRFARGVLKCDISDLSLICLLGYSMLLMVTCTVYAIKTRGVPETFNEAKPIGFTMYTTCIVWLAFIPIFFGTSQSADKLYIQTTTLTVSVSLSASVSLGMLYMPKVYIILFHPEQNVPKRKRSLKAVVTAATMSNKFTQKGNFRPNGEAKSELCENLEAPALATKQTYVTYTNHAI
pKi: −log10 of the molar value.
Recorded measurements of pKi, one per entry

compound | pKi
CCN(CC)C(=O)[C@@H]1C=C2c3cccc4[nH]cc(c34)C[C@H]2N(C)C1 [[N-methyl-3H]LSD] | < 5.00
CNC(C)Cc1ccc2c(c1)OCO2 (centres undefined) | < 5.00
C[C@@H]1C[C@@H](C)N1C(=O)C1C=C2c3cccc4[nH]cc(c34)C[C@H]2N(C)C1 (some centres undefined) | < 5.00
C[C@@H]1C[C@H](C)N1C(=O)C1C=C2c3cccc4[nH]cc(c34)C[C@H]2N(C)C1 (stereo partly drawn) [cis-2a] | < 5.00

----------
- study_target: 5-hydroxytryptamine receptor 1E (Homo sapiens)
- Sequence (P28566 whole entry): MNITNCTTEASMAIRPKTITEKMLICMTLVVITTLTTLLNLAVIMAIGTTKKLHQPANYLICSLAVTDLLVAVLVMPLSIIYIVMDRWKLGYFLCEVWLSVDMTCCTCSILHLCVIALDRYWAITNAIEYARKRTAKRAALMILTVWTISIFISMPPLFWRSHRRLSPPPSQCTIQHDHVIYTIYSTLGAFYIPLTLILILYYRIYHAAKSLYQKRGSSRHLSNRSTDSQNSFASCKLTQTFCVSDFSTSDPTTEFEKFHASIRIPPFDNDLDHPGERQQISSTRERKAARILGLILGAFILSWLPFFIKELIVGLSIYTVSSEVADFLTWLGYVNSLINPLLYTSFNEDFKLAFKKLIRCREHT

molecule | value_units | censor_symbol | Ki
COc1cc(CCN)c(OC)cc1Br | nM | = | 120
CCSc1cc(OC)c(CC(N)CC)cc1OC (configuration not stated) | nM | = | 9880
C[C@@H]1C[C@@H](C)N1C(=O)C1C=C2c3cccc4[nH]cc(c34)C[C@H]2N(C)C1 (some centres not stated) [rr-2b] | nM | = | 138
COc1ccc2[nH]cc(CCN(C(C)C)C(C)C)c2c1 | nM | > | 10000
CCc1cc(OC)c(CCN)cc1OC | nM | = | 626
CN(C)CCc1c[nH]c2cc(F)ccc12 | nM | = | 461
CCc1cc(OC)c(CC(C)N)cc1OC (configuration not stated) | nM | = | 3550

----------
- study_target: 5-hydroxytryptamine receptor 5A (Homo sapiens, UniProt P47898)
- Sequence (P47898 whole entry): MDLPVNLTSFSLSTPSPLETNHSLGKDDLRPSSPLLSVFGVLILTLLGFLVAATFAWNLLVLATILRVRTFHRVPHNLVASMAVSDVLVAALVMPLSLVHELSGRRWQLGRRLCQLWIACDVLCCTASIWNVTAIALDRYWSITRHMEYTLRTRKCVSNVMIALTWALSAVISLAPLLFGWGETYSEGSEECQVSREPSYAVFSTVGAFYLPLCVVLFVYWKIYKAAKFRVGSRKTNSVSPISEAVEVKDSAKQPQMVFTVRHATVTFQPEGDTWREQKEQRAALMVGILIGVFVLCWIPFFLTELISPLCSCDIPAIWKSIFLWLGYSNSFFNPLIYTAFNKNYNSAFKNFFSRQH
Recorded measurements of Ki, one per entry

compound | Ki
CNC(C)Cc1ccc2c(c1)OCO2 (stereo unspecified) | > 10 µM
COc1cc(CCN)cc(OC)c1OC | > 10 µM
CCc1cc(OC)c(CC(C)N)cc1OC (stereo unspecified) | > 10 µM
COc1ccc2[nH]cc(CCN(C(C)C)C(C)C)c2c1 | > 10 µM
C[C@@H]1C[C@@H](C)N1C(=O)C1C=C2c3cccc4[nH]cc(c34)C[C@H]2N(C)C1 (stereo partly specified) [rr-2b] | 0.0127 µM
CCc1cc(OC)c(CCN)cc1OC | > 10 µM
